Test system: mRNA expressed from the genes (A) to (D) in rat liver
Test: Behavior of genes (mRNA expression level, oligo-DNA microarray) in rat liver after 28-day oral administration
Assay type: in vivo
Conditions: gene group (C); Unigene No. Rn.9757; mRNA vs vehicle control group
Protocol: A test solution was prepared by dissolving each of the carcinogens and the non-carcinogens shown in Tables 2 to 6 in the corresponding solvent shown in Tables 2 to 6. […] The case where the expression level of mRNA in the carcinogen administration group or the non-carcinogen administration group is 1.5 times or more or 1/1.5 or less of the expression level of the corresponding mRNA expressed in the control group was determined to be significant. […]
Measure: Behavior of gene caused by administration of chemical substance, Gene No. 1119

{"Molecule": "Cn1c(N)nc2ncc(-c3ccccc3)cc21", "Result": "−"}
{"Molecule": "Cc1c(N)cccc1N", "Result": "−"}
{"Molecule": "c1ccc2cc3c(ccc4ccccc43)cc2c1 [TS046, Benz[a]anthracene]", "Result": "+"}
{"Molecule": "CCCCC(CC)COC(=O)c1ccccc1C(=O)OCC(CC)CCCC (stereo not drawn) [TS002, Di(2-ethylhexyl)phthalate]", "Result": "−"}
{"Molecule": "CC/C(=C(/CC)c1ccc(O)cc1)c1ccc(O)cc1", "Result": "+"}
{"Molecule": "CCCCC(CC)COC(=O)CCCCC(=O)OCC(CC)CCCC (stereo not drawn) [TS018, Di(2-ethylhexyl)adipate]", "Result": "−"}
{"Molecule": "CCOC(=O)C(C)(C)Oc1ccc(Cl)cc1 [TS001, Clofibrate]", "Result": "−"}
{"Molecule": "O=C(O)C1C(C(=O)O)C2(Cl)C(Cl)=C(Cl)C1(Cl)C2(Cl)Cl (stereo not drawn)", "Result": "−"}
{"Molecule": "CCN(N=O)C(N)=O", "Result": "−"}

The reported numbers originate from patent US20110039721A1.
